Record type: IC50 measurement. Applies to: SARS-CoV 3CLpro (Severe acute respiratory syndrome coronavirus, UniProt P0C6X7)
Give bare numbers, in µM.

CC(C)(F)C(=O)N[C@H](C(=O)N1C[C@@H]2CCC[C@@H]2[C@H]1C(=O)NN(C[C@@H]1CCNC1=O)C(=O)[C@H](F)Cl)C(C)(C)C: 0.008
CC[C@H](C)[C@H](NC(=O)C(F)F)C(=O)N1C[C@H]2[C@@H]([C@H]1C(=O)NN(C[C@@H]1CCCNC1=O)C(=O)[C@H](F)Cl)C2(C)C: 0.016
CC[C@H](C)[C@H](NC(=O)C(C)F)C(=O)N1C[C@H]2[C@@H]([C@H]1C(=O)NN(C[C@@H]1CCNC1=O)C(=O)[C@H](F)Cl)C2(C)C (mixture of isomers): 0.011

Dear colleague, could you send me IC50 for each of the items below? Thanks.
1. CC[C@H](C)[C@H](NC(=O)C(F)(F)C(F)(F)F)C(=O)N1C[C@H]2[C@@H]([C@H]1C(=O)NN(C[C@@H]1CCNC1=O)C(=O)[C@H](F)Cl)C2(C)C
2. CC[C@@H](C)[C@H](NC(=O)C1CC1(F)F)C(=O)N1C[C@H]2[C@@H]([C@H]1C(=O)NN(C[C@@H]1CCNC1=O)C(=O)[C@@H](F)Cl)C2(C)C (mixture of isomers)

Result:
[0.01, 0.045]

Task: Reported IC50 for SARS-CoV 3CLpro (Severe acute respiratory syndrome coronavirus, UniProt P0C6X7), given `CC[C@H](C)[C@H](NC(=O)[C@@H](F)Cl)C(=O)N1CC(C)(C)C[C@H]1C(=O)NN(C[C@@H]1CCNC1=O)C(=O)[C@@H](F)Cl` ?
Result: 0.043
